experiment: NCI Yeast Anticancer Drug Screen. Data for the mlh1 rad18 strain (AID 175); conditions: S. cerevisiae mlh1 rad18 strain growth inhibition; at 50.0 µM; stronger effect = higher value
This is part of a sample that, as a whole, favours compounds with a hit. Of some 79,000 tested, about 15% had one in any assay.
# growth inhibition annotations
Entry rule: numbers only, all in %.

Worked examples follow.
Cc1cccc(NC(=O)Nc2cccc(C)c2)c1: -18.2
Nc1ncnc2c1ncn2-c1ccccc1Cl: 3.1
CCOC(=O)/C=C/C(=O)N(C)c1ccccc1: -18.6
Nc1cc2c(cc1Br)-c1ccc(Cl)cc1C2=O: -0.5
OC1(c2cccc(Cl)c2)C2=NCCCN2c2ccccc21 (stereo unspecified): 5.75
Cc1nnc(N=Nc2c(O)[nH]c3ccccc23)[nH]c1=O: 16.1
CC(=O)OCC1OC(n2c(=O)n(-c3ccccc3)c(=O)c3ccccc32)C(OC(C)=O)C(OC(C)=O)C1OC(C)=O (stereo unspecified): 4.65
CN(C)c1ccc(/C=C(\C#N)c2c(Cl)cccc2Cl)cc1: -5.75

Query: What value of growth inhibition has been recorded for this entry: N#CC(OC(=O)c1cccc(C(=O)OC(C#N)(C(F)(F)F)C(F)(F)F)c1Sc1ccccc1)(C(F)(F)F)C(F)(F)F
Result: -1.3

Query: Entry CN(C)C(=O)Nc1ccc2c(c1)OCO2 please
Result: 9.45

Query: Subsequent entry: Cn1c(=O)[nH]c2c(c1=O)CCCS2
Result: -10.1

----------
Recorded growth inhibition by entry
Assay: NCI Yeast Anticancer Drug Screen. Data for the mlh1 rad18 strain (AID 175)
Settings: S. cerevisiae mlh1 rad18 strain growth inhibition; at 50.0 µM; stronger effect = higher value
Method: Growth inhibition of yeast strains with defined genetic alterations is measured as a screen for potential anti-cancer activity. Selected strains with alterations in DNA damage repair or cell cycle control were exposed to compounds and growth inhibition was measured relative to vehicle treated controls. The strain used in this assay is mlh1 rad18
The panel holds about 79,000 compounds, 15% with a hit somewhere; the sample as a whole holds those more often.
Kindly provide the numeric value in % only, without the unit symbol.

Here are 4 compounds together with their reported answers.
C=CCC(=O)OCc1cc2c(cc1Br)OCO2: 5.85
OC1(c2ccc(-c3ccc(-c4ccc(C5(O)C(c6ccccc6)=C(c6ccccc6)C(c6ccccc6)=C5c5ccccc5)cc4)cc3)cc2)C(c2ccccc2)=C(c2ccccc2)C(c2ccccc2)=C1c1ccccc1: 2
CN=C1Nc2ccc(Cl)cc2C(c2ccccc2)=NN1C: -12.6
S=c1[nH]c2ccccc2nc1NCc1ccccc1: 2.3

We next turn to a different compound, shown below.
Query: Look up growth inhibition: NC(=O)Cc1cc2c(cc1CO)OCO2
Result: 5.55

----------
Quick reference for growth inhibition among some compounds
test: NCI Yeast Anticancer Drug Screen. Data for the cln2 rad14 strain (AID 165);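 further: 0% = growth equal to vehicle treated cultures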; settings: S. cerevisiae cln2 rad14 strain, at 50.0 µM, stronger effect = higher value
Compounds without any hit were thinned out: in the full panel of roughly 79,000, 15% have a hit.
Answer in %, number only, no unit symbol.

Worked examples follow.
Nc1cc(Nc2ccc(Cl)[nH]c2=S)nc(N)n1: 20.6
C=C(C)C(=O)OCCn1c(=O)c2c(ncn2C)n(C)c1=O: -3.1
Cc1cccc2c1C1C(CC2=O)C(=O)c2ccccc2C1C (stereo not drawn): 8.9
CCCCOP(=O)(OCCCC)/C(C#N)=C/c1ccco1: -42.1
c1nnc2c3c4c(sc3ncn12)CCCC4: -24.7

Query: Could you tell me which growth inhibition is on file for CN(C)c1nnnn1-c1ccccc1 ?
Result: -21.9

Query: What do you get for CCNC(=O)Nc1nc2ccccc2s1 ?
Result: -90.7

Query: Another: COc1ccc(C(=O)COC(C)(C)C)cc1
Result: -2.7

Query: Subsequent entry: C1=Nc2ccccc2/C1=C/c1c[nH]c2ccccc12
Result: 17.9

Query: Try this compound next: CCc1ccccc1NC(=O)CCc1nc(=S)[nH][nH]1
Result: 32.4

Query: Likewise for CN1CNC(=S)NC1 ?
Result: 17.6

Query: What would you report for CCCCCCCCCCCCCCCCC(NC(C)=O)(C(=O)OCC)C(=O)OCC ?
Result: 30.2

Query: Same read-out for CC(O)c1cc2c(s1)C(=O)c1sccc1C2=O (stereo not drawn) ?
Result: 91.2
